The origin of these recorded values is paper PMC5987874.

# Target Or System: human Hv1 D130H-H140A (Homo sapiens, UniProt Q96D96, D130H/H140A)
# Sequence (Q96D96 1-273 D130H/H140A): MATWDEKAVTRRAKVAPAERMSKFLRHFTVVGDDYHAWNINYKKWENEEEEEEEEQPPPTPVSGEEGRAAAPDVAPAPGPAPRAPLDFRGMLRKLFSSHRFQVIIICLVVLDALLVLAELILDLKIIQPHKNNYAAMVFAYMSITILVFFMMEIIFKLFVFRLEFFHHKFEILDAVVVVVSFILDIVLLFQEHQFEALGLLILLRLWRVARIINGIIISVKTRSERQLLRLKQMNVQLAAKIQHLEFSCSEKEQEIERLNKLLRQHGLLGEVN
# Test Name: Whole-cell voltage clamp, Zn^2+ modulation of GAQ gating
# Assay type: cell-based
# Stated Conditions: read-out: IC50, fit of the mean data to a Hill function; Fig. 4C
Measurement Label: IC50
Please don't drop the unit; write it after the number.

Request: Param readout = IC50; param system = human Hv1 D130H-H140A (Homo sapiens, UniProt Q96D96, D130H/H140A); param query = `[Cl-].[Cl-].[Zn+2]` ; response: value
Result: 39.7 µM

---

# Target Or System: human Hv1 D123H-H193A (Homo sapiens, UniProt Q96D96, D123H/H193A)
# Test Name: Whole-cell voltage clamp, Zn^2+ modulation of GAQ gating
# Format: cell-based
# Stated Conditions: read-out: IC50, fit of the mean data to a Hill function; Fig. 4B
Measurement Label: IC50

Request: # IC50 lookup, item `[Cl-].[Cl-].[Zn+2]`
Result: 28.6 µM

---

# Target Or System: human Hv1 E119A (E^1.58A) (Homo sapiens, UniProt Q96D96, E119A)
# Test Name: Whole-cell voltage clamp, Zn^2+ modulation of GAQ gating
# Stated Conditions: read-out: IC50, fit of the mean data to a Hill function; Fig. 3C
Measurement Label: IC50
Please don't drop the unit; write it after the number.

Request: # IC50 lookup, item `[Cl-].[Cl-].[Zn+2]`
Result: 6.7 µM

---

# Target Or System: human Hv1 D185H-H193A (Homo sapiens, UniProt Q96D96, D185H/H193A)
# Test Name: Whole-cell voltage clamp, Zn^2+ modulation of GAQ gating
# Assay type: cell-based
# Stated Conditions: read-out: Mean IC50 @ VSTEP; VSTEP 80 mV; pH 6.5; mean of fits in separate cells
Measurement Label: IC50 (µM)
Unit µM implied. Number only.

Request: # IC50 lookup, item [Cl-].[Cl-].[Zn+2] [Zn^2+, ZnCl2]
Result: 37.9

---

# Target Or System: human Hv1 E119H-H140A (Homo sapiens, UniProt Q96D96, E119H/H140A)
# Test Name: Whole-cell voltage clamp, Zn^2+ modulation of GAQ gating
# Stated Conditions: read-out: IC50, fit of the mean data to a Hill function; Fig. 4A
Measurement Label: IC50 (nM)
Unit nM implied. Number only.

Request: # IC50 lookup, item [Cl-].[Cl-].[Zn+2] [Zn^2+, ZnCl2]
Result: 670

---

# Target Or System: human Hv1 E119H-H140A-H193A (Homo sapiens, UniProt Q96D96, E119H/H140A/H193A)
# Test Name: Whole-cell voltage clamp, Zn^2+ modulation of GAQ gating
# Format: cell-based
# Stated Conditions: read-out: IC50, fit of the mean data to a Hill function; Fig. 4A
Measurement Label: pIC50
API: returns pIC50 as number; meaning -log10 of concentration in mol/L.

Request: # pIC50 lookup, item `[Cl-].[Cl-].[Zn+2]`
Result: 5.12
